Reference for the values: patent US20250353864A1

pIC50 reference
# Tested on: EGFR L858R/T790M/C797S mutant (Homo sapiens (Human), UniProt P00533, C797S/L858R/T790M)
# Sequence (P00533 25-1210 T790M/C797S/L858R): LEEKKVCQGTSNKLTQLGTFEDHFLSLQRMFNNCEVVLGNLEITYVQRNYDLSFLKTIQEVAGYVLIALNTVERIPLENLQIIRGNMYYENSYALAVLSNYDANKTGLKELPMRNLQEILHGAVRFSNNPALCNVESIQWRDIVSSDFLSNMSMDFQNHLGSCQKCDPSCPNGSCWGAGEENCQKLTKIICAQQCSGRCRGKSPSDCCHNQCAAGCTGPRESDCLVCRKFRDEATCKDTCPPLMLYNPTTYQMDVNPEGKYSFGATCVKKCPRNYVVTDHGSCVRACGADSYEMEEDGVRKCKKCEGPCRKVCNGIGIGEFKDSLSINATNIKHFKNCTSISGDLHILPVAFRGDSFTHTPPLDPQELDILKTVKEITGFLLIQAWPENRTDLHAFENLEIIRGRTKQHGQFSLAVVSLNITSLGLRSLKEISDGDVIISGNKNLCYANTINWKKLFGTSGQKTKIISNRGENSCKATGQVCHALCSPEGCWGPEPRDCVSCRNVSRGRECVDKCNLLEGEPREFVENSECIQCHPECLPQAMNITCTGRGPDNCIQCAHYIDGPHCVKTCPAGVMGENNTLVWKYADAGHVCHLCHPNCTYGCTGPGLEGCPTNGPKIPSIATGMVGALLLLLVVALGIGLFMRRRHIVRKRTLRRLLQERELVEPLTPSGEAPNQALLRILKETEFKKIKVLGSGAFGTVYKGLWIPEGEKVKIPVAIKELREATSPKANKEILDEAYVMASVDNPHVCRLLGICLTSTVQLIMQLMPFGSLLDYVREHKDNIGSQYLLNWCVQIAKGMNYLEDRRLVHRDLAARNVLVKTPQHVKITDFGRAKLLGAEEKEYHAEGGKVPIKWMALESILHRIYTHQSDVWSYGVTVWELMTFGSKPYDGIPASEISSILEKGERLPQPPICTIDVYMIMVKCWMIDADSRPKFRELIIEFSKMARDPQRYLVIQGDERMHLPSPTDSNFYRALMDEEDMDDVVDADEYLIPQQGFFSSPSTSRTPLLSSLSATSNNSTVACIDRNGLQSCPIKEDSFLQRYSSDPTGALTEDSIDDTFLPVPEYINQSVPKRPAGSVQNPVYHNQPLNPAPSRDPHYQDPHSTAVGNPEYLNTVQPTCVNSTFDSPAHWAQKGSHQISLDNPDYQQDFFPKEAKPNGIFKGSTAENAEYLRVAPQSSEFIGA
# Assay name: HotSpot radiometric kinase assay, EGFR L858R/T790M/C797S mutant
# Assay context: 10 μM ATP
pIC50 (log units): -log10 of the concentration in mol/L.

Recorded pIC50 for CCOc1nn(CCO)c2c1/C=C/c1n[nH]c3ccc(cc13)-c1cnn(C)c1O[C@@H](C)CN(CC)C2 , please?
8.75

Cool, now CC(C)Oc1nn(CCO)c2c1/C=C/c1n[nH]c3cc(F)c(cc13)-c1cnn(C)c1O[C@@H](C)CN(C)C2
8.60

Cool, now CCN1Cc2c(c(OC(C)C)nn2CC(N)=O)/C=C/c2n[nH]c3ccc(cc23)-c2cnn(C)c2O[C@@H](C)C1
9.96

Cool, now Cc1nn(CC(C)(C)O)c2c1/C=C/c1n[nH]c3ccc(cc13)-c1cnn(C)c1OCCCO2
7.43

Cool, now CC(C)c1noc2c1/C=C/c1n[nH]c3ccc(cc13)-c1cnn(C)c1O[C@@H](C)CN(C)C2
6.29

Cool, now CCOc1nccc2c1/C=C/c1n[nH]c3ccc(cc13)-c1cnn(C)c1O[C@@H](C)CN(C)C2
7.98

Cool, now CC(C)Oc1nn(CCO)c2c1/C=C/c1n[nH]c3ccc(cc13)-c1cnn(C)c1O[C@@H](C)CN(C)[C@@H]2C
9.47

Cool, now C[C@H]1CN(C)Cc2c(c(OC3CCN(S(C)(=O)=O)CC3)nn2C)/C=C/c2n[nH]c3ccc(cc23)-c2cnn(C)c2O1
8.33

Cool, now CC(=O)Cn1nc(C)c2c1OCCCOc1c(cnn1C)-c1ccc3[nH]nc(c3c1)/C=C/2
8.31

Cool, now Cc1c2c(nn1CC(C)(C)O)OCCCOc1c(cnn1C)-c1ccc3[nH]nc(c3c1)/C=C/2
6.24

* * *

# Tested on: EGFR L858R/T790M mutant (Homo sapiens (Human), UniProt P00533, L858R/T790M)
# Sequence (P00533 25-1210 T790M/L858R): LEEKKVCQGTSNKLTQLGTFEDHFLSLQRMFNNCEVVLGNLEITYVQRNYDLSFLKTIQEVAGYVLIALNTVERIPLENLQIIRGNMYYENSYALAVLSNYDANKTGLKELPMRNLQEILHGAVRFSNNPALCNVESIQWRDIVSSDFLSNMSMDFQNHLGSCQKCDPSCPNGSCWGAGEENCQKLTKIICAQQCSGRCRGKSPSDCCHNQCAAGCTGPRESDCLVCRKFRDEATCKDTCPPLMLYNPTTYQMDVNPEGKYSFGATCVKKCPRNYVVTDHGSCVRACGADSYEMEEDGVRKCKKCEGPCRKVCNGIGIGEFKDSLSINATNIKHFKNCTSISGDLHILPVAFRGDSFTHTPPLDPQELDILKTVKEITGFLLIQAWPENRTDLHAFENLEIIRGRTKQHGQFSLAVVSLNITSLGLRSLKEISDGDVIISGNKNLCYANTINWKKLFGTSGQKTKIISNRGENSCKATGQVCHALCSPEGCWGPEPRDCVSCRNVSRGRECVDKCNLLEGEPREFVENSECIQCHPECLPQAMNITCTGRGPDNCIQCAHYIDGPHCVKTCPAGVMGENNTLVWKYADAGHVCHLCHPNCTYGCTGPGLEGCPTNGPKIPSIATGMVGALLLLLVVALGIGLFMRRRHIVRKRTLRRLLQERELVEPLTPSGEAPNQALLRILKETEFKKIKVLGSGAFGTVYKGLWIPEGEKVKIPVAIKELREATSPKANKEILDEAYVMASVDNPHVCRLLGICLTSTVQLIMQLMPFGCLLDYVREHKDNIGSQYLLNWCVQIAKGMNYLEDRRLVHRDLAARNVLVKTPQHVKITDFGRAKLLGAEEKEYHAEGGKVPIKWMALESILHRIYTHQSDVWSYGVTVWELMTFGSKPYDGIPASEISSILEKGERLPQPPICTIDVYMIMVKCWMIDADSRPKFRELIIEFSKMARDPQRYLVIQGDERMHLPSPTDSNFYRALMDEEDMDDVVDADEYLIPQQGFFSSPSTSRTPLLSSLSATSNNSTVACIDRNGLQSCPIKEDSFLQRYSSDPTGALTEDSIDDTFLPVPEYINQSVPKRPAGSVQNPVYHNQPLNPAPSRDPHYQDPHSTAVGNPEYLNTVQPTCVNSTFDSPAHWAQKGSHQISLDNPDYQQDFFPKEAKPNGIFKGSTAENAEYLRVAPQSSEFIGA
# Assay name: HotSpot radiometric kinase assay, EGFR L858R/T790M mutant
# Format: biochemical
# Assay context: 10 μM ATP
Quantity measured: IC50 (nM)
Numeric answer only, unit nM assumed.

Worked examples, 4 compounds total:
Cc1c2c(nn1CCO)CNC[C@H](C)Oc1c(cnn1C)-c1ccc3[nH]nc(c3c1)/C=C/2 ... 126
C[C@H]1CN(C)Cc2c(c(O)nn2C)/C=C/c2n[nH]c3ccc(cc23)-c2cnn(C)c2O1 ... 4.25
Cn1ncc2c1OCCN1CC[C@@H](Oc3ccccc3/C=C/c3n[nH]c4ccc-2cc34)C1=O ... 3.81
C[C@H]1CN(C)Cc2nn3c(c2/C=C/c2n[nH]c4ccc(cc24)-c2cnn(C)c2O1)CN(CCS(C)(=O)=O)CC3 ... 0.72

In the following, a different compound is considered.
Recorded IC50 for CCN1Cc2c(c(OC(C)C)nn2CC(C)(C)O)/C=C/c2n[nH]c3ccc(cc23)-c2cnn(C)c2O[C@@H](C)C1 , please?
4.98

* * *

The compounds below have reported IC50 for CLK4 (Homo sapiens (Human), UniProt Q9HAZ1).
Param answer (str): number followed by unit.

Record CC(C)Oc1nn(CCO)c2c1/C=C/c1n[nH]c3ccc(cc13)-c1cnn(C)c1O[C@@H](C)CN(C)[C@H]2C [Example 224] : what is its IC50 with CLK4 (Homo sapiens (Human), UniProt Q9HAZ1)?
1.46 nM

Cool, now CC(C)Oc1nn(CCO)c2c1/C=C/c1n[nH]c3ccc(cc13)-c1cnn(C)c1OCC(CF)N(C)C2 (stereo not shown) [Example 226]
1.44 nM

Cool, now CCOc1c2c(nn1C)CN(C(C)=O)CCOc1c(cnn1C)-c1ccc3[nH]nc(c3c1)/C=C/2 [Example 294]
1.37 nM

Cool, now CCOc1nn(CCO)c2c1/C=C/c1n[nH]c3cc(F)c(cc13)-c1cnn(C)c1O[C@@H](C)CN(CC)C2 [Example 288]
1.31 nM
